Reported Activity values for a set of compounds
- experimental_target: Cannabinoid receptor 1 (Homo sapiens)
- Sequence (P21554 whole entry): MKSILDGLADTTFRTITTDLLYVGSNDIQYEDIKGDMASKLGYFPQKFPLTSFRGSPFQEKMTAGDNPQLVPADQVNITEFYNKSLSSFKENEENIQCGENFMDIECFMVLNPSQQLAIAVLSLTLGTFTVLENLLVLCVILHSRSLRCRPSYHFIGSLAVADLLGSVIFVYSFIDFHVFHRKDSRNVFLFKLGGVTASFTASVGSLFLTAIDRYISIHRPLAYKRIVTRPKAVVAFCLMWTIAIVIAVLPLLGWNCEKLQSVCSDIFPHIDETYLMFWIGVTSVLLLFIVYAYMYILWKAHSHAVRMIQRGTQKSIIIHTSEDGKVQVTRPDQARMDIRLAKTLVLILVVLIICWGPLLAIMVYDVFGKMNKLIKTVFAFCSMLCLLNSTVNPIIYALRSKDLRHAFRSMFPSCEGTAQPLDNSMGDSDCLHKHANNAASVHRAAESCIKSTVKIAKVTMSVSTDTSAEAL
- assay_method_text: Positive allosteric modulation of human CB1 receptor expressed in CHOK1 cells assessed as increase in CP55940-induced beta-arrestin recruitment at 1 uM preincubated for 30 mins followed by CP55940 addition and measured after 90 to 180 mins by PathHunter assay relative to CP55940
- Type: cell-based

Examples with answers:
INSERT INTO results (compound, measured_property, value_reported) VALUES
  ('COC(=O)c1ccc(-c2[nH]c3cc(Cl)ccc3c2C(C[N+](=O)[O-])c2cccs2)cc1 (racemic)', 'Activity', '< 50%'),
  ('Cc1ccc2c(C(C[N+](=O)[O-])c3cccs3)c(-c3ccc(Cl)cc3)[nH]c2c1 (racemic)', 'Activity', '< 50%');

Turning now to a further compound:
Q) Name the recorded Activity for OC(C(c1ccccc1)c1c(-c2ccccc2)[nH]c2ccccc12)C(F)(F)F (racemic) .
A) 30 to 50%
